System: Vero E6 infected with SARS-CoV-2
Experiment notes: inhibition of SARS-CoV-2 cytopathic effect; higher = more antiviral protection, active = above 15
Assay context: 1 nM; 48 h
Measured endpoint: inhibition of SARS-CoV-2 cytopathic effect (%)
One number for each entry, in %.

For every record below, what is its inhibition of SARS-CoV-2 cytopathic effect?
1. CS(=O)(=O)c1ccc(Oc2cc(F)cc(C#N)c2)c2c1[C@H](O)C(F)(F)C2
2. CN(C)CCOC1=Cc2ccccc2Sc2ccc(Cl)cc21 [zotepine]
3. CCc1nc(N)nc(N)c1-c1ccc(Cl)cc1
4. O=C1NC(=O)c2c1c1c3ccccc3n3c1c1c2c2ccccc2n1C1CCC3O1

1. 0.26
2. 3.4
3. 2.57
4. 0.12

For every record below, what is its inhibition of SARS-CoV-2 cytopathic effect?
1. CC(=O)NS(=O)(=O)c1ccc(NC(=O)c2ccccc2C(=O)O)cc1 [phthalylsulfacetamide]
2. Cc1onc(-c2c(Cl)cccc2Cl)c1C(=O)N[C@@H]1C(=O)N2[C@@H]1SC(C)(C)[C@@H]2C(=O)O
3. NC(=O)c1ccc(N(C(N)=O)c2c(F)cccc2F)nc1-c1ccc(F)cc1F
4. Nc1ncnc2[nH]nc(Nc3ccc(F)cc3)c12
5. CNC(=O)[C@@H](NC(=O)[C@H](CC(C)C)[C@H](O)C(=O)NO)C(C)(C)C
6. O=C(Cc1cccc(OC(F)(F)F)c1)Nc1ccc(CCCCc2nnc(NC(=O)Cc3ccccn3)s2)nn1
7. O=c1oc2c(O)c(O)cc3c(=O)oc4c(O)c(O)cc1c4c23

-0.71
0.8
-0.41
-2.32
-4.07
-1.49
0.02

For every record below, what is its inhibition of SARS-CoV-2 cytopathic effect?
1. Fc1ccc2c(CCNCc3cccc(OCC(F)(F)C(F)F)c3)c[nH]c2c1
2. Cc1oc(=O)oc1COC(=O)C1=C([C@H]2CCCO2)S[C@@H]2[C@@H]([C@@H](C)O)C(=O)N12
3. Cc1onc(-c2ccccc2Cl)c1C(=O)N[C@@H]1C(=O)N2[C@@H]1SC(C)(C)[C@@H]2C(=O)O

[2.26, 2.73, 2.33]
